- Target system: human serum albumin (HSA) (Homo sapiens)
- Test name: SPR biosensor (ProteOn XPR36) HSA binding kinetics, 1:1 Langmuir fit
- Condition context: human, HSA immobilized on SPR sensor chip (ProteOn XPR36), triplicate, mean (±SD), relative values, for comparison only, read-out: kd (dissociation rate constant)
Starred links: 1 amine or outer side, 2 acyl side, 3 side chain; linkers in the order of their positions; H or OH if unused. Positions of bridges follow the written chain, without caps; N, C: chain ends. X1 = O=C(C[*:1])[*:2]
Experimental endpoint: koff (s⁻¹)

>>> obs_value("Ac-LAEAKEAANAELDSYGCSDFYKRLIDKAKTVEGVEALKDAILAAKP-NH2 (linker 17-45 via X1) [PEP18049_CL]")
"1.5e-05"

---

- Target system: human serum albumin (HSA) (Homo sapiens, UniProt P02768)
- Sequence (P02768 25-609): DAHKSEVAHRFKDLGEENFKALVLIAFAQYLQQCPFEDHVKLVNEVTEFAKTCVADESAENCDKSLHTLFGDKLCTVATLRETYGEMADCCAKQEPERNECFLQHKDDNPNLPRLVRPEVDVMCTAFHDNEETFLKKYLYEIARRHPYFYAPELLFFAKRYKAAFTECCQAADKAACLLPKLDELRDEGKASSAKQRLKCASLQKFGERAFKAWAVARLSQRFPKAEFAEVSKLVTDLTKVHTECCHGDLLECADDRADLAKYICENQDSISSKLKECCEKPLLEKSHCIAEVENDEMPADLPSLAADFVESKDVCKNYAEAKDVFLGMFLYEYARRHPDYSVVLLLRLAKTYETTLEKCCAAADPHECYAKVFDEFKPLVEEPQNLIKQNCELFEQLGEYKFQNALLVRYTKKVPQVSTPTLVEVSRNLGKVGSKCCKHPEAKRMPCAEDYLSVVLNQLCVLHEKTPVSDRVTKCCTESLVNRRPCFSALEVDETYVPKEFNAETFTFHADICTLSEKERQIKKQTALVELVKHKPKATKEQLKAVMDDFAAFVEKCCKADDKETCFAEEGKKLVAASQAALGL
- Test name: SPR biosensor (ProteOn XPR36) HSA binding kinetics, 1:1 Langmuir fit
- Condition context: human, HSA immobilized on SPR sensor chip (ProteOn XPR36), triplicate, mean (±SD), relative values, for comparison only, read-out: ka (association rate constant)
Starred links: 1 amine or outer side, 2 acyl side, 3 side chain; linkers in the order of their positions; H or OH if unused. Positions of bridges follow the written chain, without caps; N, C: chain ends. X1 = O=C(C[*:1])[*:2]
Experimental endpoint: kon (M⁻¹ s⁻¹)

>>> obs_value("Ac-LAEAKEAANAELDSYGCSDFYKRLIDKAKTVEGVEALKDAILAAKP-NH2 (linker 17-45 via X1) [PEP18049_CL]")
620000

---

- Target system: human serum albumin (HSA) (Homo sapiens)
- Test name: SPR biosensor (ProteOn XPR36) HSA binding kinetics, 1:1 Langmuir fit
- Condition context: human, triplicates, for comparison only
pKd: −log10 of the molar value. No end group written: not given here.
Experimental endpoint: pKd

>>> obs_value("LAEAKEAANAELDSYGVSDFYKRLIDKAKTVEGVEALKDAILAALP-NH2 (C-terminus assumed) [PEP07830, reference compound]")
"~10.68"

---

- Target system: human serum albumin (HSA) (Homo sapiens, UniProt P02768)
- Test name: SPR biosensor (ProteOn XPR36) HSA binding kinetics, 1:1 Langmuir fit
- Condition context: human, triplicate, mean (±SD), relative values, for comparison only, read-out: kd (dissociation rate constant)
No end group written: not given here.
Experimental endpoint: koff

>>> obs_value("LAEAKEAANAELDSYGVSDFYKRLIDKAKTVEGVEALKDAILAALP-NH2 (C-terminus assumed) [PEP07830, reference compound]")
"4.1e-06 s⁻¹"
